SYSTEM_UNDER_TEST: BTK (Homo sapiens)
Construct: purchased Invitrogen
Sequence (Q06187 whole entry): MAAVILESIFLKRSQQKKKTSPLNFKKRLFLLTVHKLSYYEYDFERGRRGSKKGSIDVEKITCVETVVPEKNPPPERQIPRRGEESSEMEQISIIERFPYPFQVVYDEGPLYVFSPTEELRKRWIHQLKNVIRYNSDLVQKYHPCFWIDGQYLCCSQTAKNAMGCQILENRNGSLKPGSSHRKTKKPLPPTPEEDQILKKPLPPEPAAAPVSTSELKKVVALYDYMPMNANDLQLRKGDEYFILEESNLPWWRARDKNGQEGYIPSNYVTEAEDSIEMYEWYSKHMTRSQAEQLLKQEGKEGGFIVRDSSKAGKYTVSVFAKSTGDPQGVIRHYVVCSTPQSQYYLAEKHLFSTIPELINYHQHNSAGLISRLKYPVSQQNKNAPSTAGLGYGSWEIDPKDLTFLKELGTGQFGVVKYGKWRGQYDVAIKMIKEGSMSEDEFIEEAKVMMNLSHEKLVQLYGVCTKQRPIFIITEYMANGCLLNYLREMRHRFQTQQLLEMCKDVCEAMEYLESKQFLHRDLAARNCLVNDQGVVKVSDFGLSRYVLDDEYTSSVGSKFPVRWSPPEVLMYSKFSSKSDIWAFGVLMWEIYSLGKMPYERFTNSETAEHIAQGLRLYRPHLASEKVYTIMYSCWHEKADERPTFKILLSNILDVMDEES
METHOD: z-lyte kinase assay, BTK
Format: biochemical
Experimental: The inhibiting activities of the inventive compounds obtained in Examples 1 to 237 against EGFR WT and EGFR L858R/T790M kinase were determined using z-lyte kinase assay kit (Invitrogen, PV3191). The kinases used in the test were purchased from Invitrogen. […] The inhibiting activities of the inventive compounds obtained in Examples 1 to 237 against BTK and JAK3 kinases were determined, respectively. […]
PARAMETER_MEASURED: IC50

The following compounds have reported results that may help.
{"columns": ["COMPOUND", "TEST_VALUE"],
 "data": [
  ["C=CC(=O)Nc1cccc(Oc2nc(Nc3ccc(C4C(=O)N(C)CCN4C)cc3)nc3ccsc23)c1 (stereo not shown) [Example 105]", "50 to 100 nM"],
  ["C=CC(=O)Nc1cccc(Oc2nc(Nc3ccc(N4CCN(C)CC4)c(Cl)c3)nc3ccsc23)c1 [Example 7]", "≤ 50 nM"],
  ["C=CC(=O)Nc1cccc(Oc2nc(Nc3ccc(N4CCN(C(C)C)CC4)nc3)nc3ccsc23)c1 [Example 146]", "50 to 100 nM"],
  ["C=CC(=O)Nc1cccc(Oc2nc(Nc3ccc(C4CCCN(C)C4)cc3)nc3ccsc23)c1 (stereo not shown) [Example 55]", "50 to 100 nM"],
  ["C=CC(=O)Nc1cccc(Oc2nc(Nc3ccc(N4CCC(N5CCCC5)CC4)cc3)nc3ccsc23)c1 [Example 47]", "50 to 100 nM"],
  ["C=CC(=O)Nc1cccc(Oc2nc(Nc3ccc(NC4CCN(C)CC4)c(F)c3)nc3ccsc23)c1 [Example 129]", "≤ 50 nM"]
]}

Kindly review the next compound as well.
Entry C=CC(=O)Nc1cccc(Oc2nc(Nc3ccc(C(=O)NC4CCN(C)CC4)c(Cl)c3)nc3ccsc23)c1 [Example 142] — recorded IC50 = ≤ 50 nM
